Sourced from PubChem BioAssay (NCI)

What TGI was measured for each of the following?
System: MCF7 breast
Assay: NCI tumour cell line growth inhibition, 48 h

Request: # get_value(readout= TGI, system= MCF7 breast) for Cc1ccc(-n2cc(-c3ccc(Cl)cc3)c(C#N)c2N)cc1
Response: 28.2 µM

Request: What is its TGI for MCF7 breast? Entry: Cc1ncc(CO)c(C=NCCCCCCN=Cc2c(CO)cnc(C)c2O)c1O
Response: > 100 µM

Request: Lookup: TGI / MCF7 breast / O=c1oc2c(ccc3c(O)cccc32)c2c1CCCC2
Response: > 100 µM

Request: Recall the recorded TGI for CC(=O)/C(=C(/Br)I)c1ccccc1 with MCF7 breast and state it.
Response: 19.1 µM

Request: // map O=c1[nH]nc(-c2ccccc2)c2c(-c3ccccc3)onc12 to recorded TGI (system: MCF7 breast)
Response: > 100 µM

Request: Param readout= TGI; system= MCF7 breast; entry= Cn1nc(C(=O)N2CC(CCl)c3c2cc([N+](=O)[O-])c2ccccc32)cc1NC(=O)Nc1cc(C(=O)N2CC(CCl)c3c2cc([N+](=O)[O-])c2ccccc32)nn1C (stereo not drawn) ; returns value.
Response: > 100 µM

Request: Any idea what TGI came out for O=[N+]([O-])c1cc2c(ccc3occc32)o1 on MCF7 breast?
Response: 21.2 µM

Request: Hello, I am looking for reported TGI with MCF7 breast for Oc1ccc(O)c2c1C1(Cl)C(Cl)=C(Cl)C2(Cl)C1(Cl)Cl . Could you help?
Response: > 100 µM
